Molecular target: T1, 4H428-AA
T1 chain: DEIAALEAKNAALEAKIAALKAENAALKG
Assay: two-hybrid library CCmax;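 further: natural log of median RNA to DNA barcode read ratio; higher means stronger binding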
Conditions: mean of both orientations
RESULT TYPE: interaction score
API doc: respond with a numeric literal and nothing else, no unit.

Exercise: // interaction score lookup, key: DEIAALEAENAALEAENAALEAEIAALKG [4H146-AA]
Key: -1.8

Exercise: Subsequent entry: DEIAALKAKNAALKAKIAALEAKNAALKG [4H1000-AA]
Key: -0.137

Exercise: Subsequent entry: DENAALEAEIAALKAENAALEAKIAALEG [4H1109-AA]
Key: -1.21

Exercise: Subsequent entry: DKIAALEAENAALKAKIAALKAENAALEG [4H2283-AA]
Key: -0.691

Exercise: Subsequent entry: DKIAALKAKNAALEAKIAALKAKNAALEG [4H2991-AA]
Key: -0.913

Exercise: Subsequent entry: DKNAALEAKIAALKAKNAALEAKIAALKG [4H3446-AA]
Key: -0.892

Exercise: Subsequent entry: DKNAALKAKIAALKAEIAALKAKNAALKG [4H3920-AA]
Key: -0.945
